Form field: composite z-score (one value per entry).
Molecular target: Torsin-1A-interacting protein 2 (Homo sapiens)
Assay: LULL1 binders on small-molecule microarray, primary screen, cell lysate, human LULL1 lysate, 635/667 nm fluorescence (AID 1092);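 note: probe is lysate of COS7 cells overexpressing human LULL1; score merges per-feature 667 nm fluorescence with signal-to-noise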
Conditions: hLULL1 lysate binding, 635 nm fluorescence, higher = more signal

Look over these answered cases.
COC(=O)[C@@H]1N=C(c2ccc(OCCCO)cc2)O[C@@H]1c1ccccc1CN=[N+]=[N-]	1.74
CC(C)CNC(=O)[C@@H]1c2ccccc2C(=O)N(C(C)C)[C@H]1c1ccc(CO)cc1	2.33
CCOC(=O)C1=CCC(c2cc3ccccc3[nH]2)N(S(=O)(=O)c2ccccc2[N+](=O)[O-])C1 (centres undefined)	3.07
C=C(CCCC)C(=O)CC[C@H](OC(C)=O)c1ccccc1OCCO	0.383

Proceed to the following item.
composite z-score lookup needed for C=C(COC)C(=O)CC[C@@H](OC(C)=O)c1ccc(OCCO)cc1 , thanks.
0.276

All figures here come from PubChem BioAssay.
